Tested on: complementary DNA
Experiment: Binding affinity for DNA: Tm between PNA and complementary DNA (UV absorbance at 260 nm)
Details: 4 μM PNA oligomer and 4 μM DNA, aq buffer pH 7.16, 10 mM sodium phosphate, 100 mM NaCl
{Lys-NH2} = C-terminal lysine amide
So basically: Tm between PNA and complementary DNA at 60 °C or higher? That is condition met. Lower than 60 °C? That is condition not met.

CA(2O2)T-A(2O2)GT-A(2O2)TA-A(2O2)GT-NH2 (CATAGTATAAGT; chemistry not fully specified) [Oligo 18, modified PNA oligomer]	condition met
CAT-AGT-ATA-AGT-NH2 (CATAGTATAAGT; chemistry not fully specified) [Oligo 27, unmodified PNA oligomer, reference compound]	condition not met
CA(5)T-A(5)GT-A(5)TA-A(5)GT-Lys-NH2 (CATAGTATAAGT; modified PNA, C-terminal Lys-NH2, chemistry not fully specified) [Oligo 17, modified PNA oligomer]	condition met

Q) Does CAT-AGT-ATA-AGT-Lys-NH2 (CATAGTATAAGT; all peptide nucleic acid (PNA), 3' {Lys-NH2}) [Oligo 16, unmodified PNA oligomer, reference compound] have a reported Tm between PNA and complementary DNA of at least 60 °C?
A) condition not met

Q) Does CA(4)T-A(4)GT-A(4)TA-A(4)GT-NH2 (CATAGTATAAGT; PNA-like chain with modified monomers A(5)/A(4), C-terminal amide, codes undefined, further chemistry not given here) [Oligo 13, modified PNA oligomer] have a reported Tm between PNA and complementary DNA of at least 60 °C?
A) condition met

Q) Does CA(5)T-A(5)GT-A(5)TA-A(5)GT-NH2 (CATAGTATAAGT; chemistry not fully specified) [Oligo 14, modified PNA oligomer] have a reported Tm between PNA and complementary DNA of at least 60 °C?
A) condition met

Q) Does TGC-TAC-TAC-TG-Lys-NH2 (TGCTACTACTG; all peptide nucleic acid (PNA), 3' {Lys-NH2}) [Oligo 5, unmodified PNA oligomer, reference compound] have a reported Tm between PNA and complementary DNA of at least 60 °C?
A) condition not met

Q) Does Fam-L(2)-CA(5)T-A(4g)GT-A(4g)TA(5)-AGT-Lys-NH2 (CATAGTATAAGT; Fam-L(2) label, modified PNA, Lys-NH2, chemistry not fully specified) [Oligo 24, fluorescein-tagged modified PNA oligomer] have a reported Tm between PNA and complementary DNA of at least 60 °C?
A) condition met

Q) Does TGC(1O3)-TAC-TAC(1O3)-TG-Lys-NH2 (TGCTACTACTG; modified PNA, C-terminal Lys-NH2, chemistry not fully specified) [Oligo 3, modified PNA oligomer] have a reported Tm between PNA and complementary DNA of at least 60 °C?
A) condition met

---

System: complementary DNA
Assay: Binding affinity for DNA: Tm between PNA and complementary DNA (UV absorbance at 260 nm)
Conditions: 4 μM PNA oligomer and 4 μM DNA, aq buffer pH 7.16, 10 mM sodium phosphate, 100 mM NaCl
Procedure: PNA oligomers of this invention were evaluated for their binding affinity for DNA by measuring Tm values as follows. 4 μM PNA oligomer and 4 μM DNA were mixed in aq buffer (pH 7.16, 10 mM sodium phosphate, 100 mM NaCl), and incubated at 90° C. for a few minutes and slowly cooled down to RT. […] The cuvette was mounted on an Agilent 8453 UV/Visible spectrophotometer and absorbance changes at 260 nm were recorded with increasing the temperature of the cuvette by either 0.5 or 1.0° C. per minute. […]
Consider the following substances; for each one, report its Tm between PNA and complementary DNA.
One number for each entry, in °C.

Below are worked cases with known answers.
TGC(2O2)-TAC-TAC(2O2)-TG-Lys-NH2 (TGCTACTACTG; modified PNA, monomer codes such as C(1O3), A(5) undefined, C-terminal Lys-NH2, further chemistry not given here) [Oligo 8, modified PNA oligomer]	68
CA(3)T-A(3)GT-A(3)TA-A(3)GT-NH2 (CATAGTATAAGT; chemistry not fully specified) [Oligo 12]	60
CA(7)T-A(7)GT-A(7)TA-A(7)GT-NH2 (CATAGTATAAGT; chemistry not fully specified) [Oligo 15, modified PNA oligomer]	71
TGC-TAC(1O3)-TAC-TG-Lys-NH2 (TGCTACTACTG; modified PNA, monomer codes such as C(1O3), A(5) undefined, C-terminal Lys-NH2, further chemistry not given here) [Oligo 4, modified PNA oligomer]	61

Q) Quick check: Tm between PNA and complementary DNA of TG(5)G-C(1O2)AA-C(1O2)TG-A(5)T-Lys-NH2 (TGGCAACTGAT; modified PNA, C-terminal Lys-NH2, chemistry not fully specified) [Oligo 20, modified PNA oligomer] ?
A) 84
